test system: EKVX NSCLC; test: NCI-60 one-dose screen, 48 h (100 = growth as untreated, 0 = no growth, -100 = all killed); settings: 10 µM unless noted
Compounds without any hit were thinned out: in the full panel of roughly 83,000, 20% have a hit.
measure: growth (%)
Give just the number in %; leave the unit off.

Look up growth for this molecule: O=C(Nc1cccc2ccccc12)c1cc2ccccc2cc1O
15

---
Recorded growth of CCOC(=O)C1=C(C(=O)c2ccc(Br)cc2)C(c2ccc(Br)cc2)NC(=S)N1 (stereo unspecified) , please.
104

Check Cc1cc(C)c(O)c(CNCCCNCc2cc(C)cc(C)c2O)c1 too.
75
